As a worked illustration, we turn to Kd data collected for Midasin (Homo sapiens, UniProt Q9NU22).
Activity calls are given as the source filed them.

Report measured Kd; entry is Cc1nc2cc(-c3nn(C(C)C)c4ncnc(N)c34)ccc2o1
> 30 µM (inactive)

---

As a worked illustration, we turn to Kd data collected for Hepatocyte growth factor receptor (Homo sapiens).
Activity calls are given as the source filed them.

molSmiles | Kd
Cc1nc2cc(-c3nn(C(C)C)c4ncnc(N)c34)ccc2o1 | > 30 µM (inactive)
CCS(=O)(=O)c1cccc(-c2cc(C(=O)NC3CCN(C)CC3)c(C)c3[nH]c4ncc(C)cc4c23)c1 | > 30 µM (inactive)
COc1cc2c(Nc3ccc(Cl)c(Cl)c3F)ncnc2cc1OC[C@@H]1C[C@@H]2CN(C)C[C@@H]2C1 | > 30 µM (inactive)
CO[C@H]1C[C@@H]2CC[C@@H](C)[C@@](O)(O2)C(=O)C(=O)N2CCCC[C@H]2C(=O)O[C@H]([C@H](C)C[C@@H]2CC[C@@H](OC(=O)C(C)(CO)CO)[C@H](OC)C2)CC(=O)[C@H](C)/C=C(\C)[C@@H](O)[C@@H](OC)C(=O)[C@H](C)C[C@H](C)/C=C/C=C/C=C/1C | > 30 µM (inactive)
Cn1cnc2c(F)c(Nc3ccc(Br)cc3F)c(C(=O)NOCCO)cc21 | > 30 µM (inactive)

Report Kd under test system Hepatocyte growth factor receptor (Homo sapiens) for COc1ccc(S(=O)(=O)N(C(C)=O)c2ccccc2/C=C/c2cc[n+]([O-])cc2)cc1 . Further: in the data inactive means no Kd found up to 30 µM.
1.39 µM
